experimental.target: CDK16 (human)
assay.info: KINOMEscan competition binding
run.conditions: compound 10.0 µM
property: kinase still bound, per cent of control (%)
All answers are understood in %, so give the number only.

> print(dat)
                              sample.smiles  numeric.result
1  CCC(=O)N1CCN(c2ccc(-n3c(=O)ccc4cnc5ccc(-c6cnc7ccccc7c6)cc5c43)cc2C(F)(F)F)CC1              91
2  CN(C)C/C=C/C(=O)Nc1cccc(Nc2ncc3c(n2)N(C)c2ccccc2C(=O)N3C)c1              95
3  CCCS(=O)(=O)Nc1ccc(F)c(C(=O)c2c[nH]c3ncc(-c4ccc(Cl)cc4)cc23)c1F              96
4  C=CC(=O)Nc1cccc(Nc2nc(N[C@H]3CC[C@H](N(C)C)CC3)nc3c2ncn3C(C)C)c1             100
5  C=CC(=O)Nc1cc(NC(=O)c2ccc(C)c(NC(=O)c3ccno3)c2)cc(C(F)(F)F)c1              95

Okay, now this molecule:
[ask] Read the entry "Cn1c(=O)n(-c2ccc(C(C)(C)C#N)cc2)c2c3cc(-c4cnc5ccccc5c4)ccc3ncc21" and write its reported kinase still bound, per cent of control.
[reply] 100

###

experimental.target: CDK14 (human) (UniProt O94921)
Sequence (O94921 whole entry, looked up): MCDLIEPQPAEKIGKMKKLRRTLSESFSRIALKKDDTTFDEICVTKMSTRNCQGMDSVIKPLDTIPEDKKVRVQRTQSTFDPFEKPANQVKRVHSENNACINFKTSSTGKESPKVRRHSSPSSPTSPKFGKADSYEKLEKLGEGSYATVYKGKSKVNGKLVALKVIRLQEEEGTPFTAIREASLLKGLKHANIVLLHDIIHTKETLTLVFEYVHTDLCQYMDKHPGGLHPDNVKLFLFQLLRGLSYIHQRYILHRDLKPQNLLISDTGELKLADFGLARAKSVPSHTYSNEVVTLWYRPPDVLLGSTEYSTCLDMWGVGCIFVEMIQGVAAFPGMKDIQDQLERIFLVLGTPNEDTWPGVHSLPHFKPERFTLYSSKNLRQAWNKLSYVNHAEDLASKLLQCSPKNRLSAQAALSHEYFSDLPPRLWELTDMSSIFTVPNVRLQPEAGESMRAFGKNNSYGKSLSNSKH
assay.info: KINOMEscan competition binding
run.conditions: compound 10.0 µM
property: kinase still bound, per cent of control (%)
All answers are understood in %, so give the number only.

Worked set:
> print(dat)
                              sample.smiles  unit.of.measure  numeric.result
1  CCN1CCN(Cc2ccc(Nc3ncc4c(n3)N(C)c3ccccc3C(=O)N4C)cc2C(F)(F)F)CC1                %             100
2  Cn1c(=O)n(-c2ccc(C(C)(C)C#N)cc2)c2c3cc(-c4cnc5ccccc5c4)ccc3ncc21                %             100
3  C[C@@H](Oc1cc(-n2cnc3ccc(CN4CCN(C)CC4)cc32)sc1C(N)=O)c1ccccc1C(F)(F)F                %              94
4  C=CC(=O)Nc1cc(NC(=O)c2ccc(C)c(NC(=O)c3ccno3)c2)cc(C(F)(F)F)c1                %              93
5   OCCCNc1cc(-c2ccnc(Nc3cccc(Cl)c3)n2)ccn1                %             100
6  C=CC(=O)Nc1cccc(Nc2nc(N[C@H]3CC[C@H](N(C)C)CC3)nc3c2ncn3C(C)C)c1                %              98
7  COc1cc(C(=O)NC2CCN(C)CC2)ccc1Nc1ncc2c(n1)N(C1CCCC1)CCC(=O)N2C(C)C                %             100
8             Cc1ccc2nc(NCCN)c3ncc(C)n3c2c1                %             100

Okay, now this molecule:
[ask] Read the entry "Cc1ccc(NC(=O)c2cccc(C(C)(C)C#N)c2)cc1Nc1ccc2ncn(C)c(=O)c2c1" and write its reported kinase still bound, per cent of control.
[reply] 100

###

experimental.target: UniProt:Q8NG66
Sequence (Q8NG66 whole entry, looked up): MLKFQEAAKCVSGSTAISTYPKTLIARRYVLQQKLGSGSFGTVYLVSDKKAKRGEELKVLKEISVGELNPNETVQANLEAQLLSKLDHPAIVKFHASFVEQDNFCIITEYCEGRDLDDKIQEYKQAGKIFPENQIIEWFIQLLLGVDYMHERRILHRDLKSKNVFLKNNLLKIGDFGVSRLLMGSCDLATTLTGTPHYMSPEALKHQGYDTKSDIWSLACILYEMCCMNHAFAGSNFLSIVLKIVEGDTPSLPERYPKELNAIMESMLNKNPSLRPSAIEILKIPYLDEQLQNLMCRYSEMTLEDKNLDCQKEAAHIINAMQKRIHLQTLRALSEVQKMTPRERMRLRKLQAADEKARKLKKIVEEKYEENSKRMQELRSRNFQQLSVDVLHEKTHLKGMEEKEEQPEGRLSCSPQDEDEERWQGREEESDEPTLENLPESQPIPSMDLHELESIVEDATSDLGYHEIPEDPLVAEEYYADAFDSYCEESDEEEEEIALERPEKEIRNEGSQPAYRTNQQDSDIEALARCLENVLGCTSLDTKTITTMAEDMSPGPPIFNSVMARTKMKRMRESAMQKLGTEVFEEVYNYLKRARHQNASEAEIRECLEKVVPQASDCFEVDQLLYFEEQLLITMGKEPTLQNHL
assay.info: KINOMEscan competition binding
run.conditions: compound 10.0 µM
property: kinase still bound, per cent of control
Record the result as number plus unit.

Worked set:
> print(dat)
                              sample.smiles  result
1  O=C(O)c1ccc(Nc2ncc3c(n2)-c2ccc(Cl)cc2C(c2c(F)cccc2F)=NC3)cc1    100%
2  C=CC(=O)Nc1cc(NC(=O)c2ccc(C)c(NC(=O)c3ccno3)c2)cc(C(F)(F)F)c1    100%
3             Cc1ccc2nc(NCCN)c3ncc(C)n3c2c1    100%
4  O=C1Nc2ccc(I)cc2/C1=C/c1cc(Br)c(O)c(Br)c1    100%

[ask] Read the entry "C=CC(=O)Nc1cccc(Nc2nc(N[C@H]3CC[C@H](N(C)C)CC3)nc3c2ncn3C(C)C)c1" and write its reported kinase still bound, per cent of control.
[reply] 54%

[ask] Read the entry "Nc1ccc(-c2ccc3ncc4ccc(=O)n(-c5cccc(C(F)(F)F)c5)c4c3c2)cn1" and write its reported kinase still bound, per cent of control.
[reply] 80%

[ask] Read the entry "CCC(=O)N1CCN(c2ccc(-n3c(=O)ccc4cnc5ccc(-c6cnc7ccccc7c6)cc5c43)cc2C(F)(F)F)CC1" and write its reported kinase still bound, per cent of control.
[reply] 65%

[ask] Read the entry "C[C@@H](Oc1cc(-n2cnc3ccc(CN4CCN(C)CC4)cc32)sc1C(N)=O)c1ccccc1C(F)(F)F" and write its reported kinase still bound, per cent of control.
[reply] 100%

[ask] Read the entry "CCN1CCN(Cc2ccc(Nc3ncc4c(n3)N(C)c3ccccc3C(=O)N4C)cc2C(F)(F)F)CC1" and write its reported kinase still bound, per cent of control.
[reply] 100%
